Biological target: human TRPA1 (Homo sapiens (Human))
Sequence (O75762 whole entry): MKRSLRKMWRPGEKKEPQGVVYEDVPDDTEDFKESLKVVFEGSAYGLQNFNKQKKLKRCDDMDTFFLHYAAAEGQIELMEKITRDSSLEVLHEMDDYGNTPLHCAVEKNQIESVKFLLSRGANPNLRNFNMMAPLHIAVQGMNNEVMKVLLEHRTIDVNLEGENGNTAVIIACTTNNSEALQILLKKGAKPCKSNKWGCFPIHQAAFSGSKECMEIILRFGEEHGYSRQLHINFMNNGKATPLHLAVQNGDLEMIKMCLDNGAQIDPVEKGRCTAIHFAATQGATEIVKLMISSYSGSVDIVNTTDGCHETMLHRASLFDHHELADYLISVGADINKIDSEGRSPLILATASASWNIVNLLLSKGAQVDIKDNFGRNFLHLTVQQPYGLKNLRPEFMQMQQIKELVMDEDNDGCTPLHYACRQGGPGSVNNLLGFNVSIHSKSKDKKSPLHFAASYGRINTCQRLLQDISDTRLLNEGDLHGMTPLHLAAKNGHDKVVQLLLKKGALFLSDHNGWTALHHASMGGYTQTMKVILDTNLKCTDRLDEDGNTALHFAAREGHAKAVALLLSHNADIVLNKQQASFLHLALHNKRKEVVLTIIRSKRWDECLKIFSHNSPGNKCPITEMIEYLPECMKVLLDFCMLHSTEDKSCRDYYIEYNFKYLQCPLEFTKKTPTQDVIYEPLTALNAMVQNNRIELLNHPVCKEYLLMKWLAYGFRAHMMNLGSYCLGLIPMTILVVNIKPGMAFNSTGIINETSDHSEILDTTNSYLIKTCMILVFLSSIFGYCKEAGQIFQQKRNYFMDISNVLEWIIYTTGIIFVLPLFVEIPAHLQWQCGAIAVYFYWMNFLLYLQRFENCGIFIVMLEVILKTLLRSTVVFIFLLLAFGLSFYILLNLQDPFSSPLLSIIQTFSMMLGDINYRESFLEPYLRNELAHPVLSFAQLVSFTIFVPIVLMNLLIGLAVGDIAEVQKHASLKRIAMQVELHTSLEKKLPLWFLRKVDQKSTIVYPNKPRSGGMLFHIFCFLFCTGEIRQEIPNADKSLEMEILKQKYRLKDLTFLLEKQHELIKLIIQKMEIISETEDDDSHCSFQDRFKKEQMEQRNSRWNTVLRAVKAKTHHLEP
Assay: FLIPR Tetra calcium influx assay, block of cinnamaldehyde-induced calcium influx in CHO cells expressing TRPA1 (human)
Type: cell-based
Conditions: 20 min compound incubation, 75 uM cinnamaldehyde (~EC80), Hill coefficient fixed to 1.5, read-out: hTRPA1 AUC IC50
pIC50: −log10 of the molar value.

>  <COMPOUND>
O=C(NCc1cc(-c2ccc(C(F)(F)F)nc2)ncn1)[C@@H]1[C@@H](F)CCN1S(=O)(=O)c1ccc(F)cc1

>  <pIC50>
7.68

$$$$
>  <COMPOUND>
O=C(NCc1cc(-c2ccc(C(F)(F)F)nc2)cc(F)n1)[C@@H]1C[C@@H](F)CN1S(=O)(=O)c1ccc(F)cc1

>  <pIC50>
7.31

$$$$
>  <COMPOUND>
N#Cc1cnc(-c2ccc(C(F)(F)F)nc2)cc1CNC(=O)[C@@H]1[C@@H](F)CCN1S(=O)(=O)c1ccc(F)cc1

>  <pIC50>
7.89

$$$$
>  <COMPOUND>
C[C@@]1(C(=O)NCc2cc(-c3ccc(C(F)(F)F)nc3)ncn2)CCN1S(=O)(=O)c1ccc(F)cc1

>  <pIC50>
7.23

$$$$
>  <COMPOUND>
O=C(NCc1ccc(F)c(-c2cnc(C(F)(F)F)cn2)c1)[C@@H]1[C@@H](F)CCN1S(=O)(=O)c1ccc(F)cc1

>  <pIC50>
7.62

$$$$
>  <COMPOUND>
N#Cc1cc(CNC(=O)[C@@H]2C[C@@H](F)CN2S(=O)(=O)c2ccc(F)cc2)cc(-c2ccc(C(F)(F)F)nc2)c1

>  <pIC50>
7.32

$$$$
>  <COMPOUND>
O=C(NCc1cc(-c2ccc(C(F)(F)F)nc2)ncn1)[C@@H]1C[C@@H](F)CN1S(=O)(=O)c1ccc(F)c(F)c1

>  <pIC50>
6.96

$$$$
>  <COMPOUND>
O=C(NCc1cc(-c2cnc(C(F)(F)F)cn2)ccc1F)[C@@H]1C[C@@H](F)CN1S(=O)(=O)c1ccc(F)cc1

>  <pIC50>
7.89

$$$$
>  <COMPOUND>
COCCOc1nc(C(F)(F)F)ccc1-c1cc(F)cc(CNC(=O)[C@@H]2C[C@@H](F)CN2S(=O)(=O)c2ccc(F)cc2)c1

>  <pIC50>
7.28

$$$$
>  <COMPOUND>
O=C(NCc1cc(N2CCC(OC(F)(F)F)CC2)c(F)cn1)[C@@H]1C[C@@H](F)CN1S(=O)(=O)c1ccc(F)cc1

>  <pIC50>
7.66

$$$$
>  <COMPOUND>
O=C(NCc1cc(F)cc(-c2ccc(C(F)(F)F)nn2)c1)[C@@H]1C[C@@H](F)CN1S(=O)(=O)c1ccc(F)cc1

>  <pIC50>
7.70

$$$$
>  <COMPOUND>
O=C(NCc1cc(Cl)nc(-c2cnc(C(F)(F)F)nc2)c1)[C@@H]1C[C@@H](F)CN1S(=O)(=O)c1ccc(F)cc1

>  <pIC50>
7.85

$$$$
>  <COMPOUND>
N#Cc1ccc(-c2cnc(C(F)(F)F)nc2)cc1CNC(=O)[C@@H]1[C@H]2C[C@H]2CN1S(=O)(=O)c1ccc(F)cc1

>  <pIC50>
8.10

$$$$
>  <COMPOUND>
C[C@@]1(F)C[C@@H](C(=O)NCc2cc(-c3cnc(C(F)(F)F)nc3)ccc2F)N(S(=O)(=O)c2ccc(F)cc2)C1

>  <pIC50>
8.22

$$$$
>  <COMPOUND>
O=C(NCc1ccnc(-c2ccc(OC(F)(F)F)cc2)c1)[C@@H]1C[C@@H](F)CN1S(=O)(=O)c1ccc(F)cc1

>  <pIC50>
7.74

$$$$
>  <COMPOUND>
O=C(NCc1cc(F)cc(-n2ccc(C(F)(F)F)n2)c1)[C@@H]1C[C@@H](F)CN1S(=O)(=O)c1ccc(F)cc1

>  <pIC50>
6.99

$$$$
>  <COMPOUND>
O=C(NCc1cc(-c2ccc(C(F)(F)F)cc2)ncn1)[C@@H]1C[C@@H]2COC[C@@H]2N1S(=O)(=O)c1ccc(F)cc1 (single isomer, unassigned)

>  <pIC50>
6.35

$$$$
>  <COMPOUND>
O=C(NCc1cc(F)cc(-c2ccc(C(F)(F)F)nc2)c1)[C@@H]1C[C@@H](F)CN1S(=O)(=O)c1ccc(F)cc1

>  <pIC50>
7.80

$$$$
>  <COMPOUND>
O=C(NCc1cc(F)cc(-c2ccc(C(F)F)cn2)c1)[C@@H]1C[C@@H](F)CN1S(=O)(=O)c1ccc(F)cc1

>  <pIC50>
7.51

$$$$
>  <COMPOUND>
O=C(NCc1cc(-c2ccc(OC(F)F)cc2)c(F)cn1)[C@@H]1C[C@@H](F)CN1S(=O)(=O)c1ccc(F)cc1

>  <pIC50>
7.28

$$$$
>  <COMPOUND>
Cc1cc(CNC(=O)[C@@H]2C[C@@H](F)CN2S(=O)(=O)c2ccc(F)cc2)cc(-c2cnc(C(F)(F)F)nc2)n1

>  <pIC50>
7.33

$$$$
>  <COMPOUND>
O=C(NCc1cc(-c2ccc(C(F)F)cc2)ncn1)[C@@H]1C[C@@H](F)CN1S(=O)(=O)c1ccc(F)cc1

>  <pIC50>
6.50

$$$$
>  <COMPOUND>
O=C(NCc1cc(F)cc(-c2cnc(C(F)(F)F)nc2)c1)[C@]12C[C@H]1CCN2S(=O)(=O)c1ccc(F)cc1

>  <pIC50>
8.00

$$$$
>  <COMPOUND>
O=C(NCc1cc(Cl)nc(-c2ccc(C(F)F)nc2)c1)[C@@H]1C[C@@H](F)CN1S(=O)(=O)c1ccc(F)cc1

>  <pIC50>
7.26

$$$$
>  <COMPOUND>
COc1nn(-c2ccc(C(F)(F)F)cc2)cc1CNC(=O)[C@@H]1C[C@@H](F)CN1S(=O)(=O)c1cccc(F)c1

>  <pIC50>
7.64

$$$$
>  <COMPOUND>
O=C(NCc1cn(-c2ccc(C(F)(F)F)cc2)nc1Cl)[C@@H]1CCN1S(=O)(=O)c1ccc(F)cc1

>  <pIC50>
7.82

$$$$

These entries and their values trace back to patent US11236046B2.
